The origin of these recorded values is the kinase profiling compilation of Christmann-Franck et al. (2016).

experimental system: PIP5K1A (human) (UniProt Q99755)
Sequence (Q99755 whole entry, looked up): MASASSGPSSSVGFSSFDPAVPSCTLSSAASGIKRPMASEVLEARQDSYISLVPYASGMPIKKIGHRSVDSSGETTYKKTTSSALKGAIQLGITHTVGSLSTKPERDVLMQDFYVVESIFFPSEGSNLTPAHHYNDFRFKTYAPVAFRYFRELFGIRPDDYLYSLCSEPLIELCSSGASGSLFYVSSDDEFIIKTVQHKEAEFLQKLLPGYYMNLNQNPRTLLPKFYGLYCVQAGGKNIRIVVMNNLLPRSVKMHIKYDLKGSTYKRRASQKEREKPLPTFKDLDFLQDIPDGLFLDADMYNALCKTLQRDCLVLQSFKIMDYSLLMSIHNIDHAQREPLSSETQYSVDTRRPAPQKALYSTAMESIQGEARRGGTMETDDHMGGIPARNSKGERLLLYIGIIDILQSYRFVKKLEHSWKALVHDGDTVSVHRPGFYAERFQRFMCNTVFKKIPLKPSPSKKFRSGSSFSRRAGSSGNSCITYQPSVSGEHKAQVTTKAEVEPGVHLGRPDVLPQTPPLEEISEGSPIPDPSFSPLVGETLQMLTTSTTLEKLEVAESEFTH
test: KINOMEscan competition binding
experimental parameters: compound 10.0 µM
Consider the following compounds and their measured kinase still bound, per cent of control readings.
Respond with the bare value in %.

See these solved cases before continuing.
{"columns": ["smiles str", "experimental system", "kinase still bound, per cent of control / %"],
 "data": [
  ["COc1ccc(N(C(=O)Oc2c(C)cccc2C)c2ccnc(Nc3ccc(N4CCN(C)CC4)cc3)n2)c(OC)c1", "PIP5K1A (human) (UniProt Q99755)", 0.45],
  ["COc1cc(C(=O)N2CCC(N3CCN(C)CC3)CC2)ccc1Nc1ncc2c(n1)N(C)c1ccccc1C(=O)N2C", "PIP5K1A (human) (UniProt Q99755)", 90],
  ["Cc1n[nH]c2ccc(-c3cncc(OC[C@@H](N)Cc4c[nH]c5ccccc45)c3)cc12", "PIP5K1A (human) (UniProt Q99755)", 9.4]
]}

Problem: Param item = CNC(=O)c1cc(Oc2ccc(NC(=O)Nc3ccc(Cl)c(C(F)(F)F)c3)cc2)ccn1 ; retrieve measured kinase still bound, per cent of control.
Result: 100

Problem: Another compound: O=c1cc(N2CCOCC2)oc2c(-c3cccc4c3sc3ccccc34)cccc12
Result: 100

Problem: Another compound: COCC(=O)NC/C=C/c1ccc2ncnc(Nc3ccc(Oc4ccc(C)nc4)c(C)c3)c2c1
Result: 88

Problem: Another compound: C=CC(=O)Nc1ccc(CN(C(=O)Nc2c(Cl)c(OC)cc(OC)c2Cl)c2cc(Nc3ccc(N4CCN(C)CC4)cc3)ncn2)cc1
Result: 100

Problem: Another compound: CCN1CCN(C(=O)Cc2ccc(Nc3ncc(F)c(Nc4ccc(C(=O)Nc5ccccc5Cl)cc4)n3)cc2)CC1
Result: 0

Problem: Another compound: COc1cc2ncn(-c3cc(OCc4ccccc4C(F)(F)F)c(C(N)=O)s3)c2cc1OC
Result: 3.4

----------
experimental system: PRKCH (human) (UniProt P24723)
Sequence (P24723 whole entry, looked up): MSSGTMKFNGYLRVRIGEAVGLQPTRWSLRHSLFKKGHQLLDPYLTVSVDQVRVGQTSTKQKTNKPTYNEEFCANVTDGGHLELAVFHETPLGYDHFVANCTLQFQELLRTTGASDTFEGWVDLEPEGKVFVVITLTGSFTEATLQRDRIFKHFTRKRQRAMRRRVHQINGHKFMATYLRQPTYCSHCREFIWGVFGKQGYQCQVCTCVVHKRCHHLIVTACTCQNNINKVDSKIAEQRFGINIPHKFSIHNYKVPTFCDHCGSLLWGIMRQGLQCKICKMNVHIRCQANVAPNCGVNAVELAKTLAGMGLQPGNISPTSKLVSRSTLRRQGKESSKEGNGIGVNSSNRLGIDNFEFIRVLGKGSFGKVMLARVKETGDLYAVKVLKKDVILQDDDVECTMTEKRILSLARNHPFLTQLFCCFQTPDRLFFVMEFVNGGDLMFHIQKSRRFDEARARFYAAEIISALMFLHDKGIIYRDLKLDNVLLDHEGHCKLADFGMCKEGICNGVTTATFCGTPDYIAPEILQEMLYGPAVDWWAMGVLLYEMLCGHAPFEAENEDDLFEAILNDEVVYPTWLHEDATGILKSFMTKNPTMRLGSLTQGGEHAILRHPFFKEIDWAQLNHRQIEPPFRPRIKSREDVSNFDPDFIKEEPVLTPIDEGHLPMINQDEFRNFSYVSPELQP
test: KINOMEscan competition binding
experimental parameters: compound 10.0 µM
Consider the following compounds and their measured kinase still bound, per cent of control readings.
Respond with the bare value in %.

{"columns": ["smiles str", "reported result"],
 "data": [
  ["C=CC(=O)Nc1cc(-n2c(=O)ccc3cnc4ccc(-c5cn[nH]c5)cc4c32)ccc1C", 100],
  ["CNC(=O)c1cc(Oc2ccc(NC(=O)Nc3ccc(Cl)c(C(F)(F)F)c3)cc2)ccn1", 100]
]}

Problem: Param item = C=CC(=O)Nc1ccc(CN(C(=O)Nc2c(Cl)c(OC)cc(OC)c2Cl)c2cc(Nc3ccc(N4CCN(C)CC4)cc3)ncn2)cc1 ; retrieve measured kinase still bound, per cent of control.
Result: 100

Problem: Another compound: NC(=O)Nc1cc(-c2cccc(F)c2)sc1C(=O)N[C@@H]1CCCNC1
Result: 1.4

Problem: Another compound: Cc1n[nH]c2ccc(-c3cncc(OC[C@@H](N)Cc4c[nH]c5ccccc45)c3)cc12
Result: 1.4

Problem: Another compound: COCC(=O)NC/C=C/c1ccc2ncnc(Nc3ccc(Oc4ccc(C)nc4)c(C)c3)c2c1
Result: 100

Problem: Another compound: C[C@@H](Oc1cc(-c2cnn(C3CCNCC3)c2)cnc1N)c1c(Cl)ccc(F)c1Cl
Result: 100

Problem: Another compound: COc1cc(C(=O)N2CCC(N3CCN(C)CC3)CC2)ccc1Nc1ncc2c(n1)N(C)c1ccccc1C(=O)N2C
Result: 100
